The molecules listed here are annotated with their pIC50.
target: human TLR7 (Homo sapiens, UniProt Q9NYK1); experiment: TLR7 inhibition reporter assay (HEK-Blue SEAP); settings: HEK-Blue cells overexpressing human TLR7, stimulated with gardiquimod 7.5 μM, 22 hour incubation
Sequence (Q9NYK1 27-1049): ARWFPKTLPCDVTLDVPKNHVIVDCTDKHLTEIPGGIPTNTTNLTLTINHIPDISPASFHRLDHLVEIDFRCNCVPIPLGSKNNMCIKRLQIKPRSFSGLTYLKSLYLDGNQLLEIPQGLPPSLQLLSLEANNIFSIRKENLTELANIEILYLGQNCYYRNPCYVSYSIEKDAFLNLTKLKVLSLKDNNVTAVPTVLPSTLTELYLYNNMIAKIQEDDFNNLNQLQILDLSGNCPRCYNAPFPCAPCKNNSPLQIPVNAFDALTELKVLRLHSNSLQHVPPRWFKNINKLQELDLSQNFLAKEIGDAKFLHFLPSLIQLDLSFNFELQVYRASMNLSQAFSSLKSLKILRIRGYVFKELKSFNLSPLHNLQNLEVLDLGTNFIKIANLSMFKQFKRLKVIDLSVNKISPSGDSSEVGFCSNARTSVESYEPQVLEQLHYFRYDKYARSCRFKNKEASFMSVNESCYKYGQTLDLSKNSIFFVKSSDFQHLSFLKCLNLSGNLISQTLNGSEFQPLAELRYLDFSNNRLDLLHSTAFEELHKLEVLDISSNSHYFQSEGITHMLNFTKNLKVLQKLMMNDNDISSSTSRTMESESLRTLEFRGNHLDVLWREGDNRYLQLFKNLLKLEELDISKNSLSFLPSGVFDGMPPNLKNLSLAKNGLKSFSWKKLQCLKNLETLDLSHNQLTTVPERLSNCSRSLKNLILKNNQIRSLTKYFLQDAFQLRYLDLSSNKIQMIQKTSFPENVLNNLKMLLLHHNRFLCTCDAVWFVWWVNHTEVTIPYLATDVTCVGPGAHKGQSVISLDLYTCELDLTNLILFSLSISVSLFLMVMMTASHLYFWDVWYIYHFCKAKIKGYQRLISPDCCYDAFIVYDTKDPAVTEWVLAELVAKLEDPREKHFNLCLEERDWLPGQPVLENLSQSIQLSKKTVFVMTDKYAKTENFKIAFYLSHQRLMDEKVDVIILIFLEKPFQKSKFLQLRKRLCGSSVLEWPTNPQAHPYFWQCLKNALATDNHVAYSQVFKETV
Lab note — pIC50 values are minus log10 of concentrations in M.

Sample answers from the record:
>  <structure.notation>
COc1cc(-c2[nH]c3ccc(OC4CCN(C(C)C)CC4)cc3c2C(C)C)cn2ncnc12

>  <measurement>
9.10

$$$$
>  <structure.notation>
COc1ccc(-c2[nH]c3ccc(OCC(=O)N4CCNCC4)cc3c2C(C)C)cc1OC

>  <measurement>
7.24

$$$$
>  <structure.notation>
Cc1cc(-c2[nH]c3ccc(OCC4CCN(C5COC5)CC4)cc3c2C(C)C)cn2ncnc12

>  <measurement>
9.22

$$$$

Request: # return recorded pIC50 for entry Cc1cc(-c2[nH]c3ccc(OC4CCN(CC(=O)N(C)C)CC4)cc3c2C(C)C)cn2ncnc12
Result: 8.68
